Values from patent US20060211724A1

molecular target: Recombinant His-tagged HIV-1 integrase (Human immunodeficiency virus type 1 group M subtype B, UniProt P12497, C1427S/F1332K); construct: Recombinant His-tagged HIV-1 integrase; His; assay: Enzymatic integrase assay (oligonucleotide-based DNA strand transfer, ELISA)
measurementKind: IC50 (nM)
The response must be a number in nM with no trailing unit.

Looking up `O=C1c2c(c(O)c3nccnc3c2O)C(=O)N1Cc1cccc(F)c1` , I see its IC50 listed as 562

Looking up `O=C1c2c(c(O)c3nccnc3c2O)C(=O)N1Cc1ccc(Br)cc1` , I see its IC50 listed as 219

Looking up `O=C1c2c(c(O)c3nccnc3c2O)C(=O)N1CCN1CCOCC1` , I see its IC50 listed as 66100

Looking up `COc1ccc(CN2C(=O)c3c(c(O)c4nc(C)ccc4c3O)C2=O)cc1` , I see its IC50 listed as 1480

Looking up `O=C1c2c(c(O)c3[nH]cnc3c2O)C(=O)N1Cc1ccc2c(c1)OCO2` , I see its IC50 listed as 2040

Looking up `Cc1ccc(CN2C(=O)c3c(c(O)c4nccnc4c3O)C2=O)cc1` , I see its IC50 listed as 1580

Looking up `O=C1c2c(c(O)c3ncccc3c2O)C(=O)N1Cc1ccc2c(c1)OCO2` , I see its IC50 listed as 5620

Looking up `O=C1c2c(c(O)c3nccnc3c2O)C(=O)N1c1ccccc1Br` , I see its IC50 listed as 1820
